Listing of recorded pIC50 by entry.
Tgt: Geranylgeranyl transferase type I (Homo sapiens, UniProt P49354+P53609)
Assay Explanation: Inhibition of human geranylgeranyltransferase-1 assessed as incorporation of [3H]GGPP into H-Ras-CVLL
pIC50: −log10 of the molar value.

Example entries and their recorded answers appear below.
# Molecule, pIC50
measured = [
    ("Cn1cncc1CN(CCN(Cc1ccccc1)S(=O)(=O)c1ccccc1)c1ccc(C#N)cc1", 6.51),
    ("Cn1cnc(S(=O)(=O)N(CCN(Cc2cnc[nH]2)c2ccccc2)Cc2ccccc2)c1", "< 5.00"),
    ("C=CCN(CCN(Cc1cncn1C)c1ccc(C#N)cc1)S(=O)(=O)c1cn(C)cn1", "< 5.00"),
]

Given the entry Cn1cnc(S(=O)(=O)N(CCN(Cc2cncn2C)c2ccc(C#N)cc2)Cc2ccco2)c1 , report its measured pIC50. 4.87

Please answer likewise for Cn1cnc(S(=O)(=O)N(CCN(Cc2cncn2C)c2ccc(C(=O)O)cc2)Cc2ccccc2)c1 < 5.00

----------
Listing of recorded Selectivity ratio by entry.
Organism: Homo sapiens
Assay Explanation: Selectivity ratio of IC50 for human geranylgeranyltransferase-1 to IC50 for human farnesyltransferase

Given the entry Cn1cnc(S(=O)(=O)N(CCN(Cc2cncn2C)c2ccc(C#N)cc2)CC(=O)NC(C)(C)C)c1 , report its measured Selectivity ratio. > 7.1

Please answer likewise for Cn1cnc(S(=O)(=O)N(CCN(Cc2cncn2C)c2ccc(Br)cc2)Cc2ccccc2)c1 6.7

Please answer likewise for Cc1cccc(CN(CCN(Cc2cncn2C)c2ccc(C#N)cc2)S(=O)(=O)c2cn(C)cn2)c1 12

Please answer likewise for Cn1cnc(S(=O)(=O)N(CCN(Cc2cncn2C)c2ccc(C#N)cc2)CC2CCN(c3ncccn3)CC2)c1 > 20

Please answer likewise for Cn1cnc(S(=O)(=O)N(CCN(Cc2c[nH]cn2)c2ccccc2)Cc2ccccc2)c1 1.6

Please answer likewise for Cn1cnc(S(=O)(=O)N(CCN(Cc2cncn2C)c2ccc(C#N)cc2)Cc2cccc(-c3ccccc3)c2)c1 2.4

----------
Listing of recorded IC50 by entry.
Tgt: Protein farnesyltransferase (Mus musculus, UniProt Q61239+Q8K2I1)
Assay Explanation: Inhibition of H-Ras farnesylation expressed in mouse NIH3T3 cells
Your answer is read as µM, so omit the unit and give the number.

# Structure, IC50 [µM]
records = [
    ("Cn1cncc1CN(CCN(Cc1ccccc1)S(=O)(=O)c1ccccc1)c1ccc(C#N)cc1", 0.3),
]

Short answer please: IC50, Protein farnesyltransferase (Mus musculus, UniProt Q61239+Q8K2I1), entry Cn1cnc(S(=O)(=O)N(CCN(Cc2cncn2C)c2ccc(C#N)cc2)Cc2ccc(-c3ccccc3)cc2)c1 5

Please answer likewise for Cn1cncc1CN(CCN(CC1CCCCC1)S(=O)(=O)c1ccccn1)c1ccc(C#N)cc1F 0.0887

----------
Tgt: Protein farnesyltransferase (Homo sapiens, UniProt P49354+P49356)
Assay Explanation: Inhibition of human farnesyltransferase assessed as incorporation of [3H]FPP into H-Ras-CVLS
pIC50: −log10 of the molar value.
Output: class label from pIC50. Mapping: bucket A: < 6; bucket B: ≥ 6 and < 7; bucket C: ≥ 7

Consider Cn1cncc1CN(CCN(Cc1ccccc1)S(=O)(=O)c1cccs1)c1ccc(C#N)cc1 . To which pIC50 class does it belong? bucket C

Please answer likewise for Cc1noc(C)c1CN(CCN(Cc1cncn1C)c1ccc(C#N)cc1)S(=O)(=O)c1cn(C)cn1 bucket B

Please answer likewise for Cn1cnc(S(=O)(=O)N(CCN(Cc2cncn2C)c2ccc(C#N)cc2)Cc2ccc(-c3ccccc3)cc2)c1 bucket A

Please answer likewise for Cn1cnc(S(=O)(=O)N(Cc2ccccc2)[C@H]2CC[C@@H](N(Cc3cncn3C)c3ccc(C#N)cc3)C2)c1 (racemic) bucket B

Please answer likewise for Cn1cnc(S(=O)(=O)N(CCN(Cc2cncn2C)c2ccc(C#N)cc2)Cc2ccc(-n3cccc3)cc2)c1 bucket B

Please answer likewise for Cn1cnc(S(=O)(=O)N(CCN(Cc2cncn2C)c2ccc(C#N)cc2)CCn2cccc2)c1 bucket C

Please answer likewise for Cn1cnc(S(=O)(=O)N(CCN(Cc2cncn2C)c2ccc(-c3ccccc3)cc2)Cc2ccccc2)c1 bucket A

----------
Tgt: Protein farnesyltransferase (Homo sapiens, UniProt P49354+P49356)
Assay Explanation: Inhibition of human farnesyltransferase assessed as incorporation of [3H]FPP into H-Ras-CVLS
Listing of recorded log10 IC50 by entry.
Answers are given as log10 of IC50 in nM.

Example entries and their recorded answers appear below.
# Molecule, Tgt, Value Kind, Test Value
measured = [
    ("C=C(Br)CN(CCN(Cc1cncn1C)c1ccc(C#N)cc1)S(=O)(=O)c1cn(C)cn1", "Protein farnesyltransferase (Homo sapiens, UniProt P49354+P49356)", "log10 IC50", 2.26),
    ("Cn1cnc(S(=O)(=O)N(CCN(Cc2cncn2C)c2ccc(C#N)cc2Cl)CC2CCN(c3ncccn3)CC2)c1", "Protein farnesyltransferase (Homo sapiens, UniProt P49354+P49356)", "log10 IC50", 2.74),
    ("C#CCN(CCN(Cc1cncn1C)c1ccc(C#N)cc1)S(=O)(=O)c1cn(C)cn1", "Protein farnesyltransferase (Homo sapiens, UniProt P49354+P49356)", "log10 IC50", 2.86),
    ("Cn1cncc1CN(CCN(Cc1ccccc1)S(=O)(=O)c1cccc2cccnc12)c1ccc(C#N)cc1", "Protein farnesyltransferase (Homo sapiens, UniProt P49354+P49356)", "log10 IC50", 1.48),
    ("Cn1cnc(S(=O)(=O)N(CCN(Cc2cncn2C)c2ncc(C#N)cn2)CC2CCN(c3ncccn3)CC2)c1", "Protein farnesyltransferase (Homo sapiens, UniProt P49354+P49356)", "log10 IC50", 2.79),
]

Given the entry Cn1cnc(S(=O)(=O)N(Cc2ccccc2)[C@@H]2CC[C@@H](N(Cc3cncn3C)c3ccc(C#N)cc3)C2)c1 (racemic) , report its measured log10 IC50. 2.58

Please answer likewise for Cn1cnc(S(=O)(=O)N(CCN(Cc2cncn2C)c2c(F)c(F)c(C#N)c(F)c2F)CC2CCN(c3ncccn3)CC2)c1 2.69

Please answer likewise for Cc1c(CN(CCN(Cc2cncn2C)c2ccc(C#N)cc2)S(=O)(=O)c2cn(C)cn2)cnn1C 3.72

Please answer likewise for Cn1cnc(S(=O)(=O)N(CCN(Cc2cncn2C)c2ccc(C#N)cc2)CC2CCCCC2)c1 1.78

----------
Tgt: Geranylgeranyl transferase type I (Homo sapiens, UniProt P49354+P53609)
Assay Explanation: Inhibition of human geranylgeranyltransferase-1 assessed as incorporation of [3H]GGPP into H-Ras-CVLL
pIC50: −log10 of the molar value.
Value Kind: pIC50

Example entries and their recorded answers appear below.
# Structure, Tgt, Test Value
measured = [
    ("Cn1cnc(S(=O)(=O)N(CCN(Cc2cncn2C)c2ccc(C(N)=O)cc2)Cc2ccccc2)c1", "Geranylgeranyl transferase type I (Homo sapiens, UniProt P49354+P53609)", "< 5.00"),
    ("Cn1cnc(S(=O)(=O)N(CCN(Cc2cncn2C)c2ccc(C#N)cc2)CC2CCCCC2)c1", "Geranylgeranyl transferase type I (Homo sapiens, UniProt P49354+P53609)", 6.28),
]

Given the entry Cn1cnc(S(=O)(=O)N(CCN(Cc2cncn2C)c2ccc(C#N)cc2)Cc2ccccc2)c1 , report its measured pIC50. 5.57

Please answer likewise for Cn1cnc(S(=O)(=O)N(CCN(Cc2cncn2C)c2ccc(C#N)cc2)Cc2ccncc2)c1 < 5.00

Please answer likewise for Cc1c(CN(CCN(Cc2cncn2C)c2ccc(C#N)cc2)S(=O)(=O)c2cn(C)cn2)cnn1C < 5.00

----------
Listing of recorded IC50 by entry.
Tgt: Geranylgeranyl transferase type I (Homo sapiens, UniProt P49354+P53609)
Assay Explanation: Inhibition of human geranylgeranyltransferase-1 assessed as incorporation of [3H]GGPP into H-Ras-CVLL

Example entries and their recorded answers appear below.
# Compound, IC50
records = [
    ("Cn1cnc(S(=O)(=O)N(CCN(Cc2cncn2C)c2ncc(C#N)cn2)CC2CCN(c3ncccn3)CC2)c1", "> 10 µM"),
    ("Cn1cnc(S(=O)(=O)N(CCN(Cc2cncn2C)c2ccc(C#N)nc2)CC2CCN(c3ncccn3)CC2)c1", "> 10 µM"),
]

API: the following record is the query input.
Given the entry Cn1cnc(S(=O)(=O)N(CCN(Cc2cncn2C)c2ccc(C#N)cc2F)CC2CCN(c3ncccn3)CC2)c1 , report its measured IC50. > 10 µM

----------
Organism: Homo sapiens
Assay Explanation: Selectivity ratio of IC50 for human geranylgeranyltransferase-1 to IC50 for human farnesyltransferase
Value Kind: Selectivity ratio

Example entries and their recorded answers appear below.
# Compound, Selectivity ratio
data = [
    ("Cn1cnc(S(=O)(=O)N(CCN(Cc2cncn2C)c2ccc(C#N)cn2)CC2CCN(c3ncccn3)CC2)c1", "> 91"),
    ("Cn1cnc(S(=O)(=O)N(CCN(Cc2cncn2C)c2ccc(C#N)cc2)Cc2ccc(-c3ccccc3)cc2)c1", 4.3),
    ("Cn1cnc(S(=O)(=O)N(CCN(Cc2cncn2C)c2ccc(C#N)cc2)CC2CCN(C(=O)OC(C)(C)C)CC2)c1", "> 2.7"),
]

Given the entry Cn1cncc1CN(CCN(CC1CCCCC1)S(=O)(=O)c1ccccn1)c1ccc(C#N)cn1 , report its measured Selectivity ratio. 2

Please answer likewise for Cn1cnc(S(=O)(=O)N(Cc2ccccc2)[C@H]2CCC[C@@H]2N(Cc2cncn2C)c2ccc(C#N)cc2)c1 (racemic) 20

Please answer likewise for C=CCN(CCN(Cc1cncn1C)c1ccc(C#N)cc1)S(=O)(=O)c1cn(C)cn1 > 14

Please answer likewise for Cn1cnc(S(=O)(=O)N(Cc2ccccc2)[C@H]2CC[C@@H](N(Cc3cncn3C)c3ccc(C#N)cc3)C2)c1 (racemic) > 15

Please answer likewise for Cn1cnc(S(=O)(=O)N(CCN(Cc2cncn2C)c2ccc(C#N)cc2)CC2CC2)c1 > 17

Please answer likewise for Cn1cnc(S(=O)(=O)N(CCN(Cc2cncn2C)c2ncc(C#N)cn2)CC2CCN(c3ncccn3)CC2)c1 > 16

Please answer likewise for C#CCN(CCN(Cc1cncn1C)c1ccc(C#N)cc1)S(=O)(=O)c1cn(C)cn1 > 14
